// provenance: ChEMBL document CHEMBL1153438

- System: K562
- MEASUREMENT_DESCRIPTION: Cytotoxicity against human K562 cells after 48 hrs by MTT assay
- Format: functional, cell-based
- COND: K562, 48 h
Criterion: IC50 strictly under 10 µM. Met: Satisfied. Not met: Not satisfied.

>  <STRUCTURE_NOTATION>
COc1cc([C@@H]2c3cc4c(cc3[C@@H](N[C@H](C(=O)OCCCn3cc(F)c(=O)[nH]c3=O)[C@@H](C)O)[C@H]3COC(=O)[C@H]23)OCO4)cc(OC)c1O

>  <ANSWER_LABEL>
Not satisfied

$$$$
>  <STRUCTURE_NOTATION>
COc1cc([C@@H]2c3cc4c(cc3[C@@H](N[C@@H](Cc3ccc(O)cc3)C(=O)OCCCn3cc(F)c(=O)[nH]c3=O)[C@H]3COC(=O)[C@H]23)OCO4)cc(OC)c1O

>  <ANSWER_LABEL>
Not satisfied

$$$$
>  <STRUCTURE_NOTATION>
O=c1[nH]cc(F)c(=O)[nH]1

>  <ANSWER_LABEL>
Not satisfied

$$$$
>  <STRUCTURE_NOTATION>
COc1cc([C@@H]2c3cc4c(cc3[C@@H](N[C@@H](Cc3ccccc3)C(=O)OCCCCn3cc(F)c(=O)[nH]c3=O)[C@H]3COC(=O)[C@H]23)OCO4)cc(OC)c1O

>  <ANSWER_LABEL>
Satisfied

$$$$
>  <STRUCTURE_NOTATION>
COc1cc([C@@H]2c3cc4c(cc3[C@@H](N[C@@H](Cc3ccccc3)C(=O)OCCCn3cc(F)c(=O)[nH]c3=O)[C@H]3COC(=O)[C@H]23)OCO4)cc(OC)c1O

>  <ANSWER_LABEL>
Satisfied

$$$$
>  <STRUCTURE_NOTATION>
CC[C@H](C)[C@H](N[C@@H]1c2cc3c(cc2[C@@H](c2cc(OC)c(O)c(OC)c2)[C@H]2C(=O)OC[C@@H]21)OCO3)C(=O)OCCCn1cc(F)c(=O)[nH]c1=O

>  <ANSWER_LABEL>
Satisfied

$$$$
>  <STRUCTURE_NOTATION>
COc1cc([C@@H]2c3cc4c(cc3[C@@H](N[C@@H](CC(C)C)C(=O)OCCCn3cc(F)c(=O)[nH]c3=O)[C@H]3COC(=O)[C@H]23)OCO4)cc(OC)c1O

>  <ANSWER_LABEL>
Satisfied

$$$$
>  <STRUCTURE_NOTATION>
COc1cc([C@@H]2c3cc4c(cc3[C@@H](N[C@@H](C)C(=O)OCCCn3cc(F)c(=O)[nH]c3=O)[C@H]3COC(=O)[C@H]23)OCO4)cc(OC)c1O

>  <ANSWER_LABEL>
Not satisfied

$$$$

###

Entries and their logP values follow.
- MEASUREMENT_DESCRIPTION: Octanol-water partition coefficient, log P of the compound
- Assay type: physicochemical
MEASUREMENT_LABEL: logP

>  <STRUCTURE_NOTATION>
COc1cc([C@@H]2c3cc4c(cc3[C@@H](N[C@H](C(=O)OCCCn3cc(F)c(=O)[nH]c3=O)[C@@H](C)O)[C@H]3COC(=O)[C@H]23)OCO4)cc(OC)c1O

>  <MEASUREMENT_LABEL>
logP

>  <DATA_VALUE>
-0.12

$$$$
>  <STRUCTURE_NOTATION>
COc1cc([C@@H]2c3cc4c(cc3[C@@H](N[C@@H](CC(C)C)C(=O)OCCCCn3cc(F)c(=O)[nH]c3=O)[C@H]3COC(=O)[C@H]23)OCO4)cc(OC)c1O

>  <MEASUREMENT_LABEL>
logP

>  <DATA_VALUE>
0.35

$$$$
>  <STRUCTURE_NOTATION>
COc1cc([C@@H]2c3cc4c(cc3[C@@H](N[C@@H](Cc3ccccc3)C(=O)OCCCCCn3cc(F)c(=O)[nH]c3=O)[C@H]3COC(=O)[C@H]23)OCO4)cc(OC)c1O

>  <MEASUREMENT_LABEL>
logP

>  <DATA_VALUE>
0.29

$$$$
>  <STRUCTURE_NOTATION>
COc1cc([C@@H]2c3cc4c(cc3[C@@H](N[C@@H](Cc3ccccc3)C(=O)OCCCCn3cc(F)c(=O)[nH]c3=O)[C@H]3COC(=O)[C@H]23)OCO4)cc(OC)c1O

>  <MEASUREMENT_LABEL>
logP

>  <DATA_VALUE>
0.43

$$$$
>  <STRUCTURE_NOTATION>
COc1cc([C@@H]2c3cc4c(cc3[C@H](O)[C@H]3COC(=O)[C@H]23)OCO4)cc(OC)c1OC

>  <MEASUREMENT_LABEL>
logP

>  <DATA_VALUE>
0.69

$$$$
>  <STRUCTURE_NOTATION>
COc1cc([C@@H]2c3cc4c(cc3[C@@H](N[C@@H](CC(C)C)C(=O)OCCCCCn3cc(F)c(=O)[nH]c3=O)[C@H]3COC(=O)[C@H]23)OCO4)cc(OC)c1O

>  <MEASUREMENT_LABEL>
logP

>  <DATA_VALUE>
0.51

$$$$
